EXPERIMENTAL_TARGET: Gal-4CL (Homo sapiens, UniProt P56470)
Construct: designated as Gal-4NL (aa 1-160), and Gal-4CL (aa 169-323), respectively; made in house; host or cells: E. coli Rosetta (DE3) pLysS
Sequence (P56470 169-323): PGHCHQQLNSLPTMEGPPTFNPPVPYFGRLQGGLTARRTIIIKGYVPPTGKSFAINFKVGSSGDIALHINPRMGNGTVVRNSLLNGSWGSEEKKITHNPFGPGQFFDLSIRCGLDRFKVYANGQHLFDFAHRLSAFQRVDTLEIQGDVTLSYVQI
EXPERIMENT_DESCRIPTION: competitive ELISA, inhibition of binding of Gal-4CL subunit to immobilized ASF
CONDITION: Gal-4CL
PROPERTY: rp Gal-4CL, relative potency (IC50 (lactose)/IC50 (ligand))
// print number alone

Would you please look over these solved cases?
[
  {
    "MOLECULE": "CC(=O)N[C@H]1[C@H](O[C@H]2[C@@H](O)[C@@H](CO)O[C@@H](O[C@H]3[C@H](O)[C@@H](O)C(O)O[C@@H]3CO)[C@@H]2O)O[C@H](CO)[C@@H](O[C@@H]2O[C@H](CO)[C@H](O)[C@H](O)[C@H]2O)[C@@H]1O (some centres unmarked) [lacto-N-neotetraose (4), lacto-N-neotetraose]",
    "ENDPOINT_RESULT": 10
  },
  {
    "MOLECULE": "CC(=O)N[C@H]1C(O)O[C@H](CO)[C@H](O)[C@@H]1O[C@@H]1O[C@H](CO)[C@H](O)[C@H](O)[C@H]1O (some centres unmarked) [TF antigen motif (9)]",
    "ENDPOINT_RESULT": 1.5
  },
  {
    "MOLECULE": "CC(=O)N[C@H]1[C@@H](O[C@H]2[C@@H](O)[C@@H](CO)O[C@@H](O[C@H]3[C@H](O)[C@@H](O)C(O)O[C@@H]3CO)[C@@H]2O[C@@H]2O[C@@H](C)[C@@H](O)[C@@H](O)[C@@H]2O)O[C@H](CO)[C@H](O)[C@@H]1O (some centres unmarked) [blood-group antigen A (5), blood-group antigen A type 6]",
    "ENDPOINT_RESULT": 320
  },
  {
    "MOLECULE": "C[C@@H]1O[C@@H](O[C@H]2[C@H](O[C@H]3[C@H](O)[C@@H](O)C(O)O[C@@H]3CO)O[C@H](CO)[C@H](O)[C@@H]2O)[C@@H](O)[C@H](O)[C@@H]1O (some centres unmarked) [2′-fucosyllactose (2), 2′-fucosyllactose]",
    "ENDPOINT_RESULT": 7.8
  }
]

## Task Give its rp Gal-4CL, relative potency (IC50 (lactose)/IC50 (ligand)) value. Item: CC(=O)N[C@H]1[C@H](O[C@H]2[C@@H](O)[C@@H](CO)O[C@@H](O[C@H]3[C@H](O)[C@@H](O)C(O)O[C@@H]3CO)[C@@H]2O)O[C@H](CO)[C@@H](O)[C@@H]1O[C@@H]1O[C@H](CO)[C@H](O)[C@H](O)[C@H]1O (some centres unmarked) [lacto-N-tetraose (3), lacto-N-tetraose]
## Result 18.3

---

EXPERIMENTAL_TARGET: Gal-4 (Homo sapiens)
Sequence (P56470 whole entry): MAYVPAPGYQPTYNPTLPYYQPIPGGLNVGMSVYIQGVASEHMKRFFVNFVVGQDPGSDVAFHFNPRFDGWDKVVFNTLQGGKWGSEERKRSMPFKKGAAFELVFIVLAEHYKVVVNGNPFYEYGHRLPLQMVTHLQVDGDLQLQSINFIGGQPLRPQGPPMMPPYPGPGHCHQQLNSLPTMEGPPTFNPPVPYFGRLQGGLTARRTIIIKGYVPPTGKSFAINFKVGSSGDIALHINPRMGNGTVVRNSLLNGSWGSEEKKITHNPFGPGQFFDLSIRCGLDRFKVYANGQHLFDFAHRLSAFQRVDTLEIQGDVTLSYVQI
EXPERIMENT_DESCRIPTION: competitive ELISA, inhibition of binding of whole Gal-4 to immobilized ASF
CONDITION: competitive ELISA, Gal-4 2.5 µM, immobilized ASF
// reported IC50 per item
Return type: number; implicit unit µM.

Would you please look over these solved cases?
[
  {
    "MOLECULE": "OC[C@H]1O[C@@H](O[C@H]2[C@H](O)[C@@H](O)[C@H](O)O[C@@H]2CO)[C@H](O)[C@@H](O)[C@H]1O",
    "UNITS_TEXT": "µM",
    "ENDPOINT_RESULT": 2500
  },
  {
    "MOLECULE": "CC(=O)N[C@H]1[C@@H](O[C@H]2[C@@H](O)[C@@H](CO)O[C@@H](O[C@H]3[C@H](O)[C@@H](O)C(O)O[C@@H]3CO)[C@@H]2O[C@@H]2O[C@@H](C)[C@@H](O)[C@@H](O)[C@@H]2O)O[C@H](CO)[C@H](O)[C@@H]1O (stereo partly shown) [blood-group antigen A (5), blood-group antigen A type 6]",
    "UNITS_TEXT": "µM",
    "ENDPOINT_RESULT": 50
  },
  {
    "MOLECULE": "CC(=O)N[C@H]1[C@H](O[C@H]2[C@@H](O)[C@@H](CO)O[C@@H](O[C@H]3[C@H](O)[C@@H](O)C(O)O[C@@H]3CO)[C@@H]2O)O[C@H](CO)[C@@H](O[C@@H]2O[C@H](CO)[C@H](O)[C@H](O)[C@H]2O)[C@@H]1O (stereo partly shown)",
    "UNITS_TEXT": "µM",
    "ENDPOINT_RESULT": 600
  }
]

## Task Request: IC50, test system Gal-4 (Homo sapiens), entry CC(=O)N[C@H]1C(O)O[C@H](CO)[C@H](O)[C@@H]1O[C@@H]1O[C@H](CO)[C@H](O)[C@H](O)[C@H]1O (stereo partly shown) [TF antigen motif (9)]
## Result 1180

---

EXPERIMENTAL_TARGET: Gal-4 (Homo sapiens)
Construct: made in house; host or cells: Escherichia coli Rosetta (DE3) pLysS
EXPERIMENT_DESCRIPTION: competitive ELISA, inhibition of binding of whole Gal-4 to immobilized ASF
CONDITION: whole Gal-4
// reported rp, relative potency (IC50 (lactose)/IC50 (ligand)) per item
// print number alone

Would you please look over these solved cases?
[
  {
    "COMPOUND": "CC(=O)N[C@H]1[C@H](O[C@H]2[C@@H](O)[C@@H](CO)O[C@@H](O[C@H]3[C@H](O)[C@@H](O)C(O)O[C@@H]3CO)[C@@H]2O)O[C@H](CO)[C@@H](O[C@@H]2O[C@H](CO)[C@H](O)[C@H](O)[C@H]2O)[C@@H]1O (stereo partly shown) [lacto-N-neotetraose (4), lacto-N-neotetraose]",
    "EXPERIMENTAL_TARGET": "Gal-4 (Homo sapiens)",
    "ENDPOINT_RESULT": 4.1
  },
  {
    "COMPOUND": "C[C@@H]1O[C@@H](O[C@H]2[C@H](O[C@H]3[C@H](O)[C@@H](O)C(O)O[C@@H]3CO)O[C@H](CO)[C@H](O)[C@@H]2O)[C@@H](O)[C@H](O)[C@@H]1O (stereo partly shown) [2′-fucosyllactose (2), 2′-fucosyllactose]",
    "EXPERIMENTAL_TARGET": "Gal-4 (Homo sapiens)",
    "ENDPOINT_RESULT": 1.7
  },
  {
    "COMPOUND": "C[C@@H]1O[C@@H](O[C@H]2[C@H](O[C@H]3[C@H](O)[C@@H](O)C(O)O[C@@H]3CO)O[C@H](CO)[C@H](O)[C@@H]2O[C@H]2O[C@H](CO)[C@H](O)[C@H](O)[C@H]2O)[C@@H](O)[C@H](O)[C@@H]1O (stereo partly shown) [blood-group antigen B (6), blood-group antigen B type 6]",
    "EXPERIMENTAL_TARGET": "Gal-4 (Homo sapiens)",
    "ENDPOINT_RESULT": 31
  }
]

## Task Give its rp, relative potency (IC50 (lactose)/IC50 (ligand)) value. Item: CC(=O)N[C@H]1[C@@H](O[C@H]2[C@@H](O)[C@@H](CO)O[C@@H](O[C@H]3[C@H](O)[C@@H](O)C(O)O[C@@H]3CO)[C@@H]2O[C@@H]2O[C@@H](C)[C@@H](O)[C@@H](O)[C@@H]2O)O[C@H](CO)[C@H](O)[C@@H]1O (stereo partly shown) [blood-group antigen A (5), blood-group antigen A type 6]
## Result 48

---

EXPERIMENTAL_TARGET: Gal-4NL (Homo sapiens, UniProt P56470)
Construct: designated as Gal-4NL (aa 1-160), and Gal-4CL (aa 169-323), respectively; made in house; host or cells: E. coli Rosetta (DE3) pLysS
Sequence (P56470 1-160): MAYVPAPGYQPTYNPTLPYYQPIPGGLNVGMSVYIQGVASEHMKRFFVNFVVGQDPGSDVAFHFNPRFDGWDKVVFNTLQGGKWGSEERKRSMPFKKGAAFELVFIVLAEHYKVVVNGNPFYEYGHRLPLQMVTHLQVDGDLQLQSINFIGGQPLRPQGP
EXPERIMENT_DESCRIPTION: competitive ELISA, inhibition of binding of Gal-4NL subunit to immobilized ASF
CONDITION: Gal-4NL
PROPERTY: rp Gal-4NL, relative potency (IC50 (lactose)/IC50 (ligand))

Would you please look over these solved cases?
[
  {
    "MOLECULE": "C[C@@H]1O[C@@H](O[C@H]2[C@H](O[C@H]3[C@H](O)[C@@H](O)C(O)O[C@@H]3CO)O[C@H](CO)[C@H](O)[C@@H]2O)[C@@H](O)[C@H](O)[C@@H]1O (some centres unmarked)",
    "ENDPOINT_RESULT": 4.8
  },
  {
    "MOLECULE": "OC[C@H]1O[C@@H](O[C@H]2[C@H](O)[C@@H](O)[C@H](O)O[C@@H]2CO)[C@H](O)[C@@H](O)[C@H]1O",
    "ENDPOINT_RESULT": 1.0
  },
  {
    "MOLECULE": "CC(=O)N[C@H]1[C@H](O[C@H]2[C@@H](O)[C@@H](CO)O[C@@H](O[C@H]3[C@H](O)[C@@H](O)C(O)O[C@@H]3CO)[C@@H]2O)O[C@H](CO)[C@@H](O[C@@H]2O[C@H](CO)[C@H](O)[C@H](O)[C@H]2O)[C@@H]1O (some centres unmarked)",
    "ENDPOINT_RESULT": 7.3
  },
  {
    "MOLECULE": "CC(=O)N[C@H]1[C@H](O[C@H]2[C@@H](O)[C@@H](CO)O[C@@H](O[C@H]3[C@H](O)[C@@H](O)C(O)O[C@@H]3CO)[C@@H]2O)O[C@H](CO)[C@@H](O)[C@@H]1O[C@@H]1O[C@H](CO)[C@H](O)[C@H](O)[C@H]1O (some centres unmarked)",
    "ENDPOINT_RESULT": 14
  }
]

Here is the next item to consider.
## Task Give its rp Gal-4NL, relative potency (IC50 (lactose)/IC50 (ligand)) value. Item: CC(=O)N[C@H]1C(O)O[C@H](CO)[C@H](O)[C@@H]1O[C@@H]1O[C@H](CO)[C@H](O)[C@H](O)[C@H]1O (some centres unmarked) [TF antigen motif (9)]
## Result 0.8
